Test system: NCI-H2452 (Mesothelioma)
Assay: Bliss excess, mean over the matrix (fraction); higher = more synergy
Could you please report measured Bliss excess for the items listed next?
One number for each entry.

| Molecule | System Name | Bliss excess |
| --- | --- | --- |
| Cc1c2c(nn1C)CSCc1cc(n(C)n1)CSc1cc(c3ccccc3c1)OCCCc1c(C(=O)O)n(C)c3c-2c(Cl)ccc13 [AZD5991] + C=CCn1c(=O)c2cnc(Nc3ccc(N4CCN(C)CC4)cc3)nc2n1-c1cccc(C(C)(C)O)n1 [AZD1775] (first compound max 1 µM, partner max 1 µM) | NCI-H2452 (Mesothelioma) | 0.0015 |
| Cc1nc(Nc2ncc(C(=O)Nc3c(C)cccc3Cl)s2)cc(N2CCN(CCO)CC2)n1 [Dasatinib] + CC(=O)Nc1cccc(-n2c(=O)n(C3CC3)c(=O)c3c(Nc4ccc(I)cc4F)n(C)c(=O)c(C)c32)c1 [Trametinib] (first compound max 2 µM, 7x7, partner max 1 µM) | NCI-H2452 (Mesothelioma) | -0.0671 |
| C=CCn1c(=O)c2cnc(Nc3ccc(N4CCN(C)CC4)cc3)nc2n1-c1cccc(C(C)(C)O)n1 [AZD1775] + C[C@@H]1COCCN1C2=NC(=NC(=C2)C3(CC3)[S@](=N)(=O)C)C4=C5C=CNC5=NC=C4 [AZD6738] (first compound max 1 µM, partner max 10 µM) | NCI-H2452 (Mesothelioma) | -0.0518 |

// batch mode: one Bliss excess value per listed entry
1. COc1nnc2ccc(N3CCC(c4ccc(OCCN5CCN(C)C(=O)[C@H]5C)cc4)CC3)nn12 [AZD5153] + CCN(CCO)CCCOc1ccc2c(Nc3cc(CC(=O)Nc4cccc(F)c4)[nH]n3)ncnc2c1 [AZD2811] (first compound max 1 µM, 7x7, partner max 1 µM)
2. NC1(C(=O)N[C@@H](CCO)c2ccc(Cl)cc2)CCN(c2ncnc3[nH]ccc23)CC1 [Capivasertib] + Cn1cnc2c(F)c(Nc3ccc(Br)cc3Cl)c(C(=O)NOCCO)cc21 [Selumetinib] (first compound max 10 µM, 7x7, partner max 10 µM)

[-0.0574, -0.092]

Field: Bliss excess. Fill in for each record below.
1. Cc1c2c(nn1C)CSCc1cc(n(C)n1)CSc1cc(c3ccccc3c1)OCCCc1c(C(=O)O)n(C)c3c-2c(Cl)ccc13 [AZD5991] + CC1(C)CCC(CN2CCN(c3ccc(C(=O)NS(=O)(=O)c4ccc(NCC5CCOCC5)c([N+](=O)[O-])c4)c(Oc4cnc5[nH]ccc5c4)c3)CC2)=C(c2ccc(Cl)cc2)C1 [Venetoclax] (first compound max 1 µM, 7x7, partner max 1 µM)
2. CS(=O)(=O)CCNCc1ccc(-c2ccc3ncnc(Nc4ccc(OCc5cccc(F)c5)c(Cl)c4)c3c2)o1 [Lapatinib] + C[C@@H](Oc1cc(-c2cnn(C3CCNCC3)c2)cnc1N)c1c(Cl)ccc(F)c1Cl [Crizotinib] (first compound max 10 µM, 7x7, partner max 10 µM)
3. C[C@@H](Nc1cc(F)cc(F)c1)c1cc(C(=O)N(C)C)cc2c(=O)cc(N3CCOCC3)oc12 [AZD8186] + CC(=O)c1c(C)c2cnc(Nc3ccc(N4CCNCC4)cn3)nc2n(C2CCCC2)c1=O [Palbociclib] (first compound max 10 µM, 7x7, partner max 10 µM)

[-0.0471, -0.0932, -0.0353]

----------
System: SW1463 (Colorectal Carcinoma)
Assay: Bliss excess, mean over the matrix (fraction); higher = more synergy
Outcome Measure: Bliss excess
One number for each entry.

| Compound | System Name | Bliss excess |
| --- | --- | --- |
| C[C@@H](Oc1cc(-c2cnn(C3CCNCC3)c2)cnc1N)c1c(Cl)ccc(F)c1Cl [Crizotinib] + CC1=C(C(=CC=C1)Cl)NC(=O)C2=CN=C(S2)NC3=CC(=NC(=N3)C)N4CCN(CC4)CCO [Dasatinib] (first compound max 10 µM, 7x7, partner max 2 µM) | SW1463 (Colorectal Carcinoma) | -0.0926 |
| COc1cccc2c1C(=O)c1c(O)c3c(c(O)c1C2=O)C[C@@](O)(C(=O)CO)C[C@@H]3O[C@H]1C[C@H](N)[C@H](O)[C@H](C)O1 [Doxorubicin] + Cc1cc2ncnn2cc1Nc1ncc2c(n1)n(C1CCOCC1)c(=O)n2C [AZD7648] (first compound max 1 µM, 7x7, partner max 10 µM) | SW1463 (Colorectal Carcinoma) | -0.0363 |
| CC1(C)CCC(CN2CCN(c3ccc(C(=O)NS(=O)(=O)c4ccc(NCC5CCOCC5)c([N+](=O)[O-])c4)c(Oc4cnc5[nH]ccc5c4)c3)CC2)=C(c2ccc(Cl)cc2)C1 [Venetoclax] + Cn1cnc2c(F)c(Nc3ccc(Br)cc3Cl)c(C(=O)NOCCO)cc21 [Selumetinib] (first compound max 1 µM, 7x7, partner max 3 µM) | SW1463 (Colorectal Carcinoma) | -0.0631 |
| Cn1cnc2c(F)c(Nc3ccc(Br)cc3Cl)c(C(=O)NOCCO)cc21 [Selumetinib] + C=CCn1c(=O)c2cnc(Nc3ccc(N4CCN(C)CC4)cc3)nc2n1-c1cccc(C(C)(C)O)n1 [AZD1775] (first compound max 10 µM, partner max 1 µM) | SW1463 (Colorectal Carcinoma) | -0.0367 |

Take each entry in turn and give its Bliss excess.
1. CN(C)CCCOc1ccc(-c2ccc3ncc4c(c3c2)n(C2CCOCC2)c(=O)n4C)cn1 [AZD0156] + C[C@@H]1COCCN1C2=NC(=NC(=C2)C3(CC3)[S@](=N)(=O)C)C4=C5C=CNC5=NC=C4 [AZD6738] (first compound max 1 µM, 7x7, partner max 10 µM)
2. O=C(c1cc(Cc2n[nH]c(=O)c3ccccc23)ccc1F)N1CCN(C(=O)C2CC2)CC1 [Olaparib] + COc1nnc2ccc(N3CCC(c4ccc(OCCN5CCN(C)C(=O)[C@H]5C)cc4)CC3)nn12 [AZD5153] (first compound max 10 µM, 7x7, partner max 1 µM)

[-0.0057, -0.0601]

Tell me the measured Bliss excess of Cc1nc(Nc2ncc(C(=O)Nc3c(C)cccc3Cl)s2)cc(N2CCN(CCO)CC2)n1 [Dasatinib] + CC(=O)Nc1cccc(-n2c(=O)n(C3CC3)c(=O)c3c(Nc4ccc(I)cc4F)n(C)c(=O)c(C)c32)c1 [Trametinib] (first compound max 2 µM, 7x7, partner max 1 µM) , please.
-0.0659

----------
Tested on: IGROV-1 (Ovarian Carcinoma)
Experiment: combination Emax (second highest fraction inhibited in the dose matrix, 72 h); higher = more inhibition; extreme values may be limits of the assay
Outcome Measure: combination Emax
One number for each entry.

Report combination Emax for every entry below.
1. COc1cccc(OCCCN)c1-c1cc(Nc2cnc(C#N)cn2)n[nH]1 [Prexasertib] + C[C@@H]1COCCN1C2=NC(=NC(=C2)C3(CC3)[S@](=N)(=O)C)C4=C5C=CNC5=NC=C4 [AZD6738] (first compound max 1 µM, 7x7, partner max 10 µM)
2. CN(CCO)CC[C@H](CSc1ccccc1)Nc1ccc(S(=O)(=O)NC(=O)c2ccc(N3CCC([C@@H](O)c4ccccc4-c4ccc(Cl)cc4)CC3)cc2)cc1S(=O)(=O)C(F)(F)F [AZD4320] + C1CN(CCC1(C(=O)N[C@@H](CCO)C2=CC=C(C=C2)Cl)N)C3=NC=NC4=C3C=CN4 [Capivasertib] (first compound max 1 µM, 7x7, partner max 3 µM)
3. CC1(C)CCC(CN2CCN(c3ccc(C(=O)NS(=O)(=O)c4ccc(NCC5CCOCC5)c([N+](=O)[O-])c4)c(Oc4cnc5[nH]ccc5c4)c3)CC2)=C(c2ccc(Cl)cc2)C1 [Venetoclax] + CCN(CCO)CCCOc1ccc2c(Nc3cc(CC(=O)Nc4cccc(F)c4)[nH]n3)ncnc2c1 [AZD2811] (first compound max 1 µM, 7x7, partner max 1 µM)

0.754
0.767
0.255

----------
Test system: SK-N-DZ (Neuroblastoma)
Test: combination Emax (second highest fraction inhibited in the dose matrix, 72 h); higher = more inhibition; extreme values may be limits of the assay
Outcome Measure: combination Emax
Numbers only.

Past entries and their recorded results:
| Compound | combination Emax |
| --- | --- |
| Cc1c2c(nn1C)CSCc1cc(n(C)n1)CSc1cc(c3ccccc3c1)OCCCc1c(C(=O)O)n(C)c3c-2c(Cl)ccc13 [AZD5991] + C1CN(CCC1(C(=O)N[C@@H](CCO)C2=CC=C(C=C2)Cl)N)C3=NC=NC4=C3C=CN4 [Capivasertib] (first compound max 1 µM, 7x7, partner max 3 µM) | 0.182 |
| CN(CCO)CC[C@H](CSc1ccccc1)Nc1ccc(S(=O)(=O)NC(=O)c2ccc(N3CCC([C@@H](O)c4ccccc4-c4ccc(Cl)cc4)CC3)cc2)cc1S(=O)(=O)C(F)(F)F [AZD4320] + Cn1cnc2c(F)c(Nc3ccc(Br)cc3Cl)c(C(=O)NOCCO)cc21 [Selumetinib] (first compound max 1 µM, 7x7, partner max 3 µM) | 0.827 |

Attention now turns to another entry.
So what combination Emax did C=CCn1c(=O)c2cnc(Nc3ccc(N4CCN(C)CC4)cc3)nc2n1-c1cccc(C(C)(C)O)n1 [AZD1775] + O=C(c1cc(Cc2n[nH]c(=O)c3ccccc23)ccc1F)N1CCN(C(=O)C2CC2)CC1 [Olaparib] (first compound max 1 µM, partner max 10 µM) get with SK-N-DZ (Neuroblastoma)?
0.935
